Tested on: ATP;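 further: ATP exposure 15 min at 22 °C before imaging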
Assay: switch fluorescence ratio, 500 uM ATP over buffer (Cy3 cluster intensity, sum of 5 cycles each) (fold (ratio)); higher = stronger signal-on switching upon ATP binding; sequences stand for … in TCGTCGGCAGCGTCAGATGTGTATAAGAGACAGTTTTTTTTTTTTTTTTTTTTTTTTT…TC
Conditions: aptamer strand: ATP DNA aptamer (quencher-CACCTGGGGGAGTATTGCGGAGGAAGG + anchor), 100 nM annealed; ATP concentration: 500 uM

{"columns": ["Sequence Record", "Assay Target", "switch fluorescence ratio"],
 "data": [
  ["ATAACGGGGA", "ATP", 0.999],
  ["TCAGGGGTTG", "ATP", 1.09],
  ["TTAGGCGTGT", "ATP", 1.03],
  ["TAGTTTCGGG", "ATP", 0.997],
  ["TTTGGCCGGA", "ATP", 0.985],
  ["GGGGTAATCT", "ATP", 1],
  ["TTCGGGAACA", "ATP", 1.02],
  ["TGCAAGGGGC", "ATP", 1.04],
  ["AGGGCCTCTT", "ATP", 0.986],
  ["TTTTCCCGCA", "ATP", 2.02],
  ["ATTTCTGGGA", "ATP", 0.982],
  ["AGTATCAGAA", "ATP", 1],
  ["CATCTGTGCG", "ATP", 1.02],
  ["TTTGCAAGGA", "ATP", 1.02],
  ["TAGATAAGGC", "ATP", 0.981],
  ["GATTATTTAG", "ATP", 0.997],
  ["CCAGGTGGCA", "ATP", 2.83],
  ["GAAAAAAATT", "ATP", 1.02],
  ["CAGCAGGCGT", "ATP", 1.03],
  ["TTGGTTCGC", "ATP", 0.994],
  ["ACGGATTGTG", "ATP", 0.971],
  ["TGTGTTCACT", "ATP", 1.01],
  ["TTTAGGACTT", "ATP", 0.994],
  ["CGTGTCCGGT", "ATP", 1.01],
  ["GGGCCGAATG", "ATP", 1.01],
  ["AACTTGTCGA", "ATP", 0.886],
  ["AATAGGGTGT", "ATP", 1.07],
  ["GACGGGATAG", "ATP", 1.25],
  ["TGGGGGTATT", "ATP", 1.05],
  ["TGCCTGGGTG", "ATP", 2.74],
  ["TGAGGGCGTT", "ATP", 0.995],
  ["ACATACTGCA", "ATP", 1.29],
  ["GGCGTCTATC", "ATP", 1.01],
  ["GTTATACGGT", "ATP", 0.997],
  ["ATCGAGAACG", "ATP", 0.993],
  ["ACGGGGGCGT", "ATP", 1.05],
  ["TTACCCCCGT", "ATP", 1.56],
  ["CCATTGGGGT", "ATP", 0.995],
  ["TTTGAAGCAA", "ATP", 4.2],
  ["GGGAGACTCG", "ATP", 0.967],
  ["TGGAGGGAAG", "ATP", 1.03],
  ["TTGCGTCATT", "ATP", 1.03],
  ["ATAGGCCAG", "ATP", 0.99]
]}

###

Quick reference for switch fluorescence ratio among some sequences
Tested on: ATP;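 further: ATP exposure 15 min at 22 °C before imaging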
Test: switch fluorescence ratio, 500 uM ATP over buffer (Cy3 cluster intensity, sum of 5 cycles each) (fold (ratio)); higher = stronger signal-on switching upon ATP binding; sequences stand for … in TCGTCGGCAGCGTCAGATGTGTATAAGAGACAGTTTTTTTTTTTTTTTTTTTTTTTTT…TC
Conditions: aptamer strand: ATP DNA aptamer (quencher-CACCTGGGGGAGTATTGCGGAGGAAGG + anchor), 100 nM annealed; ATP concentration: 500 uM
Measurement Kind: switch fluorescence ratio

{"columns": ["Sequence Record", "Readout Value"],
 "data": [
  ["GGGGGGACGA", 1.01],
  ["AATCATTTTG", 1],
  ["GGGAGTAGCA", 1.02],
  ["TGGGTGGGGT", 1.01],
  ["GTTGGATAGG", 1.01],
  ["AAGCCCTAGC", 0.976],
  ["TGGGACGTAC", 1.79],
  ["TACGTATAGG", 1.1],
  ["ACCGGGTGTA", 1.3],
  ["TTCTAGCTAT", 1.58],
  ["CGGTGGCTGG", 0.972],
  ["TTTGTAGTGT", 0.999],
  ["TGAGTTATGC", 0.953],
  ["GGAACCATAT", 0.997],
  ["TGGGGAACCT", 0.96],
  ["ATCTGGGGGG", 1],
  ["GGTTTGGGCT", 0.983],
  ["GGTTGCCATA", 0.944],
  ["TAGGGACGCC", 1.03],
  ["GGCCGTATGT", 1.01]
]}

###

Tested on: ATP;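 further: ATP exposure 15 min at 22 °C before imaging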
Assay: switch fluorescence ratio, 500 uM ATP over buffer (Cy3 cluster intensity, sum of 5 cycles each) (fold (ratio)); higher = stronger signal-on switching upon ATP binding; sequences stand for … in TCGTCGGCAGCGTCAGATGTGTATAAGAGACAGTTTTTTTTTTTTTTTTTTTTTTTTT…TC
Details: aptamer strand: ATP DNA aptamer (quencher-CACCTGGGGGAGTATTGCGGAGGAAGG + anchor), 100 nM annealed; ATP concentration: 500 uM
Classify as follows. Reported switch fluorescence ratio greater than or equal to 1: class 1. Reported switch fluorescence ratio below: class 0.

{"columns": ["Sequence Record", "Class"],
 "data": [
  ["GGGGGTTGAG", "class 1"],
  ["TTTTGTGGCG", "class 1"],
  ["AAGAGGTGTT", "class 1"],
  ["GGGTCCCGGG", "class 1"],
  ["TTTGAGCCAC", "class 1"],
  ["AGGGATTGGT", "class 0"],
  ["TGGATTGTCC", "class 1"],
  ["TTATAGAGTT", "class 0"],
  ["AGGGGACGGC", "class 1"]
]}

###

Tested on: ATP;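 further: ATP exposure 15 min at 22 °C before imaging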
Experiment: switch fluorescence ratio, 500 uM ATP over buffer (Cy3 cluster intensity, sum of 5 cycles each) (fold (ratio)); higher = stronger signal-on switching upon ATP binding; sequences stand for … in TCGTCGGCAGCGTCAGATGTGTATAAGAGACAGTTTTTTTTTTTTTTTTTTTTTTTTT…TC
Conditions: aptamer strand: ATP DNA aptamer (quencher-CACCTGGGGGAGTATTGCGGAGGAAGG + anchor), 100 nM annealed; ATP concentration: 500 uM

{"columns": ["Sequence Record", "switch fluorescence ratio"],
 "data": [
  ["GCGGTCAAAC", 1.06],
  ["AAAGGGTTAG", 1],
  ["CTTGCGCCTG", 1.01],
  ["TGAAGATTTA", 1.03],
  ["TATAAAGTGG", 1.03],
  ["TTGTTAGATG", 1.01],
  ["CATAATCCGG", 0.968],
  ["AAGGCTTGAT", 1],
  ["TGAGGGACAT", 1.02],
  ["GAATTTGTGG", 0.995],
  ["GCTTGGACTA", 0.967],
  ["TTGTTTATTT", 1.02],
  ["TTGGGGTTTT", 1.01],
  ["TCTGAAGGTG", 1.28],
  ["TCACAGTCTA", 1.04],
  ["TTCTTAGCAC", 1.58],
  ["CTAGCTATGT", 1],
  ["GCTATGGTGG", 0.987],
  ["GGGTGGGGCT", 1.01],
  ["AGGAGGTTAT", 1.01],
  ["GATTTTCCGT", 1.01],
  ["CTTCACCAAC", 1.19],
  ["ATATGAAGGG", 1],
  ["ACTGTTAGAT", 1.02],
  ["TGGGAACCGT", 1.18],
  ["AATTTGTTCT", 0.999],
  ["TTGGAGTTTG", 1.02],
  ["CTCATATGGA", 1.01],
  ["ACAACGCTTG", 1.01],
  ["GGGGAGGGAT", 0.996],
  ["TGCTACACGT", 1.01],
  ["TTATTCAAAA", 1],
  ["ATGTATGTGC", 0.997],
  ["GACGGTCACT", 1.21],
  ["ACTTTTTTAA", 1],
  ["AGCGAATTTT", 0.999],
  ["AATCGAGTGG", 0.969],
  ["GTAAAAGTTG", 1],
  ["ACTCGTAATC", 3.04],
  ["CGTAGTTCGA", 1.02],
  ["GCAGGGATGG", 0.985],
  ["GTACCTATCG", 1.01],
  ["TTATGCCACG", 1.04],
  ["AACTGCAAGT", 0.993],
  ["TACGTTGCTT", 0.996],
  ["CAAAGTGTGG", 0.989],
  ["TTTATTCTTT", 1],
  ["TCGAGGAGTT", 1.01],
  ["GGTATATGGG", 0.994],
  ["TTGAGGTCGT", 1.02],
  ["GAGAGTACGT", 0.964],
  ["TCGTCTTTTG", 0.997],
  ["TGGTGTCAAT", 1],
  ["TGGATGTCAG", 0.992],
  ["CTTCAGGAAG", 0.995],
  ["CAGGATGCGT", 0.961],
  ["CGTGATTCGC", 1.02],
  ["CATCATGTAC", 1.33],
  ["AGGTCGGATG", 1],
  ["GATAGTGGTT", 1.02],
  ["GGAGTATGAG", 0.999],
  ["GTTTGCCCAA", 0.987],
  ["TTCGCGACTT", 0.987],
  ["CGGTTATTAG", 0.99],
  ["CATTTAGTGT", 0.984],
  ["ACGGTTTATG", 1.01],
  ["GTCGGCAGGT", 0.994],
  ["CGTGTGGCTG", 0.992],
  ["GGCGCTCAGT", 1.02],
  ["TACATTTATA", 1.02],
  ["CTCGTTTATC", 1.03],
  ["AGGCAAAGGC", 1.06],
  ["GTTTCTTTAC", 0.988],
  ["TTAAGAAGCC", 0.987],
  ["AGAGATTGCC", 1.07],
  ["ATGAAGACTA", 0.996],
  ["CATATATGTC", 1],
  ["GAAATATGTG", 0.989],
  ["CTGATTCGGT", 0.989],
  ["ATCAATGGCA", 0.975],
  ["AACTTTGACC", 1.03],
  ["GGGTTAATCG", 1],
  ["CTGGTTTATA", 0.962],
  ["GGGGGATCGC", 1.01],
  ["ATCGTGCACA", 0.973],
  ["GGGGACTACT", 1]
]}
